test: CHI Log D procedure; assay type: physicochemical; conditions: pH 7.4
Item-by-item account of CHI Log D
In your answer, state the number alone without any accompanying words.

CC(=O)N1CCC[C@]12CC=CCCCC1(CCCC=CCCCOC(=O)N3CC[C@@](C(=O)N[C@@H](Cc4ccccc4Cl)C(=O)N[C@@H](Cc4csc5ccccc45)C(=O)N[C@H](C(N)=O)[C@@H](C)O)(C3)NC(=O)[C@H](CC(C)C)NC(=O)[C@H](Cc3ccccc3)NC(=O)[C@H](C)NC(=O)[C@H](C)NC(=O)[C@H](CC(=O)O)NC(=O)[C@H](CC(=O)O)NC1=O)NC(=O)[C@H](CC(C)(C)C)NC(=O)[C@H](CC(=O)O)NC2=O (some centres unmarked) [I-1068] :: 2.053

[Q] Requested field: CHI Log D. Item: CC(=O)N1CCC[C@]12CC=CCCCC1(CCCC=CCCCOC(=O)N3CC[C@@](C(=O)N[C@@H](Cc4ccccc4)C(=O)N[C@@H](Cc4csc5ccccc45)C(=O)N[C@@H](CCC(N)=O)C(N)=O)(C3)NC(=O)[C@H](CC(N)=O)NC(=O)[C@H](Cc3ccccc3)NC(=O)[C@H](C)NC(=O)[C@H](C)NC(=O)[C@H](CCC(=O)O)NC(=O)[C@H](CC(=O)O)NC1=O)NC(=O)[C@H](CC(C)(C)C)NC(=O)[C@H](CC(=O)O)NC2=O (some centres unmarked) [I-685]
[A] 2.1
